Target: Sodium-dependent serotonin transporter (Homo sapiens)
Sequence (P31645 whole entry): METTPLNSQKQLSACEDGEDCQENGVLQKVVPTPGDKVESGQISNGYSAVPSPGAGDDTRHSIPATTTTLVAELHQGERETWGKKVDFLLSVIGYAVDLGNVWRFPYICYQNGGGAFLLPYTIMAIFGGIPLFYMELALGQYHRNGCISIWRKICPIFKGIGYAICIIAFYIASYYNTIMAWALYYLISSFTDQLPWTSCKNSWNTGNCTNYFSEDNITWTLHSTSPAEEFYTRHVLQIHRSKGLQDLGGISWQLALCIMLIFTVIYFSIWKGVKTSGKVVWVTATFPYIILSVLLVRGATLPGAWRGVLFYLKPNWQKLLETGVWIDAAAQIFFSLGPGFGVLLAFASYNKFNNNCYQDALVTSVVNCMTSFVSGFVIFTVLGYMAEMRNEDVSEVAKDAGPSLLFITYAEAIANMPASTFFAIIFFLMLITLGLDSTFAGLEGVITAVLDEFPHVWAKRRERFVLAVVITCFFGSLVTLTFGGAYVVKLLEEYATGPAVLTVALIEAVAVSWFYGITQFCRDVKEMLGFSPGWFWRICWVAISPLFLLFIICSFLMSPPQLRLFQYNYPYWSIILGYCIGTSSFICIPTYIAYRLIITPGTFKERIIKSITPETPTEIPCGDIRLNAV
pKi: −log10 of the molar value.

[
  {
    "COMPOUND": "C#Cc1ccc([C@@H]2CN3CCC[C@@H]3c3ccccc32)cc1",
    "pKi": 9.57
  },
  {
    "COMPOUND": "C#Cc1ccc([C@H]2CN3CCC[C@H]3c3ccccc32)cc1",
    "pKi": 7.80
  },
  {
    "COMPOUND": "C#Cc1ccc(C2CN3CCCC3c3ccccc32)cc1 (racemic)",
    "pKi": 9.05
  },
  {
    "COMPOUND": "CN1Cc2c(N)cccc2C(c2ccc(Cl)c(Cl)c2)C1 (centres undefined)",
    "pKi": 7.99
  }
]
